All values here come from patent US20230286923A1.

# tested system: UniProt:Q7Z5P4
# test name: Estrone detection assay (LC/MS, conversion of estradiol to estrone) for HSD17B13 activity
# Format: biochemical
# settings: substrate 4 µM estradiol, 6 mM NAD+, 30 nM enzyme
# Protocol: The liquid chromatography/mass spectrometry (LC/MS) estrone detection assay monitors the conversion of estradiol to estrone by HSD17B13. […] Reactions were incubated for 2 hours at 26.5° C., and estradiol (E2) conversion to estrone (E1) was quantitated by LC-MS/MS based analyte detection for both E2 and E1 using LCMS grade reagents. […]
readout kind: IC50

Please review the following examples before continuing.
COc1ccccc1CCn1cnc2sc(C)c(NC(=O)c3ccc(O)c(Cl)c3)c2c1=O = ≤ 0.1 µM
COc1ccccc1CCn1cnc2cccc(NC(=O)c3ccc(O)c(Cl)c3)c2c1=O = ≤ 0.1 µM
COc1ccccc1CCn1cnc2cccc(NC(=O)c3ccc(-c4cnn[nH]4)c(F)c3)c2c1=O = 1 to 10 µM

Req: Item under review: N#Cc1cc(C(=O)Nc2cccc3ncn(Cc4ccc(OC(F)(F)F)cc4)c(=O)c23)cc(F)c1O . Reported IC50?
Resp: 0.1 to 1 µM

Req: For the compound C[C@@H](c1cccc(F)c1)n1cnc2cccc(NC(=O)c3cc(Cl)c(O)c(C(F)(F)F)n3)c2c1=O , what IC50 is on record?
Resp: 0.1 to 1 µM

Req: Name the reported IC50 value associated with the compound CC(C)(C)CCn1cnc2cccc(NC(=O)c3ccc(S(=O)(=O)NC(=O)c4cccnc4)c(Cl)c3)c2c1=O
Resp: 1 to 10 µM

Req: Which IC50 is listed for O=C(Nc1cccc2ncn(Cc3ccccc3C(F)(F)F)c(=O)c12)c1cc(Cl)c(O)c(C(F)(F)F)c1 ?
Resp: 0.1 to 1 µM

Req: Which value of IC50 has been reported for COc1ccccc1CCn1cnc2cccc(NC(=O)c3ccc(S(N)(=O)=O)c(Cl)c3)c2c1=O in the records?
Resp: > 10 µM

Req: I would be grateful if you could share the reported IC50 for COc1ccccc1CCn1cnc2cccc(NC(=O)c3ccc(-c4nnn[nH]4)c(Cl)c3)c2c1=O .
Resp: 1 to 10 µM

Req: What value of measured IC50 is listed for CC(C)(C)CCn1cnc2cccc(NC(=O)c3ccc(S(=O)(=O)NC(=O)c4ccccc4)c(Cl)c3)c2c1=O ?
Resp: 1 to 10 µM

Req: Can you share its IC50? I mean this compound: CC(C)(C)CCn1cnc2cccc(NC(=O)c3ccc(O)c(Cl)c3)c2c1=O
Resp: ≤ 0.1 µM

Req: May I ask what IC50 has been recorded for C[C@@H](c1cccc(F)c1)n1cnc2cccc(NC(=O)c3cc(F)c(O)c(C#N)c3)c2c1=O ?
Resp: ≤ 0.1 µM

Req: Return reported IC50; argument: O=C(Nc1cccc2ncn(Cc3cocn3)c(=O)c12)c1cc(Cl)c(O)c(C(F)(F)F)c1
Resp: 1 to 10 µM

Req: Fill blank: measured IC50 of the compound C[C@@H](c1cccc(F)c1)n1cnc2cccc(NC(=O)c3cc(Cl)c(O)c(C#N)c3)c2c1=O is ____.
Resp: 0.1 to 1 µM

Req: Bench note: what IC50 did N#Cc1cc(C(=O)Nc2cccc3ncn(Cc4ccccc4C(F)(F)F)c(=O)c23)cc(F)c1O show?
Resp: ≤ 0.1 µM

Req: Form field: reported IC50 of N#Cc1cc(C(=O)Nc2cccc3ncn(Cc4cccc(OC(F)(F)F)c4)c(=O)c23)cc(Cl)c1O
Resp: 0.1 to 1 µM

Req: # lookup: IC50 of N#Cc1cc(C(=O)Nc2cccc3ncn(Cc4cccc(OC(F)(F)F)c4)c(=O)c23)cc(F)c1O
Resp: 0.1 to 1 µM

* * *

# tested system: HSD17B13 enzyme (Homo sapiens (Human))
# test name: Estrone detection assay (LC/MS, conversion of estradiol to estrone) for HSD17B13 activity
# Format: biochemical
# settings: substrate 4 µM estradiol, 6 mM NAD+, 30 nM enzyme
# Procedure: The liquid chromatography/mass spectrometry (LC/MS) estrone detection assay monitors the conversion of estradiol to estrone by HSD17B13. […] Reactions were incubated for 2 hours at 26.5° C., and estradiol (E2) conversion to estrone (E1) was quantitated by LC-MS/MS based analyte detection for both E2 and E1 using LCMS grade reagents. […]
pIC50: −log10 of the molar value.
readout kind: pIC50

Worked examples, 4 compounds total:
N#Cc1cc(C(=O)Nc2cccc3ncn(Cc4ccc(OC(F)(F)F)cc4)c(=O)c23)cc(Cl)c1O = 6.00 to 7.00
CC(C)(C)CCn1cnc2cccc(NC(=O)c3cnc(O)c(Cl)c3)c2c1=O = 5.00 to 6.00
COc1ccccc1Cn1cnc2cccc(NC(=O)c3ccc(O)c(Cl)c3)c2c1=O = ≥ 7.00
COc1ccccc1CCn1cnc2cccc(NC(=O)c3ccc(CC(=O)O)c(F)c3)c2c1=O = 5.00 to 6.00

Req: Sample O=C(Nc1cccc2ncn(-c3ccccc3)c(=O)c12)c1ccc(O)c(Cl)c1 — what was its pIC50?
Resp: 6.00 to 7.00

Req: Give its pIC50 value. Item: O=C(Nc1cccc2ncn(Cc3ccc(C(F)(F)F)cc3)c(=O)c12)c1cc(Cl)c(O)c(C(F)(F)F)n1
Resp: 5.00 to 6.00

Req: Could you tell me which pIC50 is on file for COc1ccccc1CCn1cnc2cccc(NC(=O)c3ccc(O)c(C(F)(F)F)c3)c2c1=O ?
Resp: ≥ 7.00

Req: For the compound shown here, O=C(Nc1cccc2ncn(Cc3ccccc3F)c(=O)c12)c1cc(Cl)c(O)c(C(F)(F)F)c1 , give the reported pIC50.
Resp: 6.00 to 7.00

* * *

# tested system: HSD17B13 enzyme (Homo sapiens (Human), UniProt Q7Z5P4)
# Sequence (Q7Z5P4 20-300): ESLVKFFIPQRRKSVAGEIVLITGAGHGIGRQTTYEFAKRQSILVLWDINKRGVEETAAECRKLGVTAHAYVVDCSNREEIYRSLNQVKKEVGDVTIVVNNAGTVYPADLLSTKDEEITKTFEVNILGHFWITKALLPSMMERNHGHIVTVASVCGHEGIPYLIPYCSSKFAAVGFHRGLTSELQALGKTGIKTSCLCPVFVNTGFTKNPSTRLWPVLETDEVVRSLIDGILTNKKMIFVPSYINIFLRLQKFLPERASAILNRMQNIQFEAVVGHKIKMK
# test name: NADH detection assay (fluorescence based LTB3 assay) for HSD17B13 activity
# Assay type: biochemical
# settings: substrate 25 µM LTB3, 3 mM NAD+, 125 nM enzyme
pIC50: −log10 of the molar value.
Reported pIC50 values follow for various compounds

Here's what some known entries look like.
COc1ccccc1CCn1cnc2cccc(NC(=O)c3cc(Cl)c(O)c(Cl)c3)c2c1=O = 5.30 to 6.00
COc1ccccc1CCn1cnc2cccc(NC(=O)c3ccc(O)c(F)c3)c2c1=O = ≥ 6.00
CC(C)(C)CCn1cnc2cccc(NC(=O)c3ccc(O)c(Cl)c3)c2c1=O = ≥ 6.00
COc1ccccc1CCn1cnc2c(c(NC(=O)c3ccc(O)c(F)c3)nn2C)c1=O = 5.00 to 5.30
CC(C)(C)CCn1cnc2cccc(NC(=O)c3cc(Cl)c(O)nn3)c2c1=O = < 5.00

Pending compound:
Req: Consider the compound COc1ccccc1CCn1cnc2sc(C)c(NC(=O)c3ccc(O)c(Cl)c3)c2c1=O and give its measured pIC50.
Resp: ≥ 6.00

* * *

Parameter: IC50. Scope: all listed entries.
# tested system: HSD17B13 enzyme (Homo sapiens (Human), UniProt Q7Z5P4)
# test name: Estrone detection assay (LC/MS, conversion of estradiol to estrone) for HSD17B13 activity
# Type: biochemical
# settings: substrate 4 µM estradiol, 6 mM NAD+, 30 nM enzyme

Some compounds with known IC50 results, for comparison:
O=C(Nc1cccc2ncn(Cc3ccc(C(F)(F)F)cc3)c(=O)c12)c1cc(Cl)c(O)c(C(F)(F)F)c1 [Example 46] = 100 to 1000 nM
COc1ccccc1CCn1cnc2cccc(NC(=O)c3cc(Cl)c(O)c(Cl)c3)c2c1=O [Example 33] = 100 to 1000 nM
N#Cc1cc(C(=O)Nc2cccc3ncn(Cc4cccc(F)c4)c(=O)c23)cc(Cl)c1O [Example 49] = 100 to 1000 nM
O=C(Nc1cccc2ncn(Cc3cccc(F)c3)c(=O)c12)c1cc(C(F)(F)F)c(O)c(C(F)(F)F)n1 [Example 40] = 100 to 1000 nM
O=C(Nc1cccc2ncn(Cc3cccc(F)c3)c(=O)c12)c1cc(Cl)c(O)c(=O)[nH]1 [Example 65] = > 10000 nM

Req: Field request: IC50 | item: N#Cc1cc(C(=O)Nc2cccc3ncn(Cc4cccc(C(F)(F)F)c4)c(=O)c23)cc(F)c1O [Example 57]
Resp: ≤ 100 nM

Req: Reported IC50, compound NC(=O)c1cc(C(=O)Nc2cccc3ncn(Cc4cccc(C(F)(F)F)c4)c(=O)c23)cc(F)c1O [Example 54] : ____
Resp: 1000 to 10000 nM

Req: Which IC50 reading was recorded for the compound N#Cc1cc(C(=O)Nc2cccc3ncn(Cc4ccccc4F)c(=O)c23)cc(Cl)c1O [Example 37] ?
Resp: 100 to 1000 nM

* * *

Overview of recorded IC50 for various compounds
# tested system: UniProtKB Q7Z5P4
# test name: Estrone detection assay (LC/MS, conversion of estradiol to estrone) for HSD17B13 activity
# Type: biochemical
# settings: substrate 4 µM estradiol, 6 mM NAD+, 30 nM enzyme

Consider the following illustrative entries.
COc1ccccc1CCn1cnc2cccc(NC(=O)c3ccc(C(=O)O)c(Cl)c3)c2c1=O = 1 to 10 µM
CC(C)(C)n1ccc(Cn2cnc3cccc(NC(=O)c4cc(F)c(O)c(C#N)c4)c3c2=O)n1 = 0.1 to 1 µM
Cn1c(-c2cccnc2)nc2cccc(NC(=O)c3ccc(-c4nnn[nH]4)c(F)c3)c2c1=O = > 10 µM
COc1ccccc1CCn1cnc2cccc(NC(=O)c3ccc(P(=O)(O)O)c(F)c3)c2c1=O = > 10 µM
N#Cc1cc(C(=O)Nc2cccc3ncn(Cc4ccc(F)cc4)c(=O)c23)cc(F)c1O = ≤ 0.1 µM

Turning to the following compound.
Req: What measured IC50 goes with O=C(Nc1cccc2ncn(Cc3ccccc3OC(F)(F)F)c(=O)c12)c1cc(Cl)c(O)c(C(F)(F)F)n1 ?
Resp: 0.1 to 1 µM
